# Species: Rattus norvegicus
# EXPERIMENT: Open TG-GATES - Regimen: Daily Repeat
# Type: toxicity, organism-based, Sprague-Dawley
# Design: regimen Daily Repeat, gender Male, age 6 weeks
# CONDITIONS USED: in vivo, po, 0 mg/kg, […], tissue Blood, route gavage, dose level Control, time 28 day
Here the recorded Fbg is given for each entry.
Respond numerically; units are mg/dL and should not be typed.

Examples from the recorded data:
{"COMPOUND": "CC(=O)Oc1cc(C(C)C)c(OCCN(C)C)cc1C [MOXISYLYTE]", "RESULT UNIT": "mg/dL", "Fbg": 320.8}
{"COMPOUND": "C[C@](N)(Cc1ccc(O)c(O)c1)C(=O)O [METHYLDOPA]", "RESULT UNIT": "mg/dL", "Fbg": 315.2}
{"COMPOUND": "Oc1ncnc2[nH]ncc12 [ALLOPURINOL]", "RESULT UNIT": "mg/dL", "Fbg": 230.6}
{"COMPOUND": "C#C[C@]1(O)CC[C@H]2[C@@H]3CCc4cc(O)ccc4[C@H]3CC[C@@]21C [ETHINYL ESTRADIOL]", "RESULT UNIT": "mg/dL", "Fbg": 294.2}
{"COMPOUND": "CCc1oc2ccccc2c1C(=O)c1cc(I)c(O)c(I)c1 [BENZIODARONE]", "RESULT UNIT": "mg/dL", "Fbg": 215.8}
{"COMPOUND": "CCC(C)(C)C(=O)O[C@H]1C[C@@H](C)C=C2C=C[C@H](C)[C@H](CC[C@@H]3C[C@@H](O)CC(=O)O3)[C@H]21 [SIMVASTATIN]", "RESULT UNIT": "mg/dL", "Fbg": 227.8}
{"COMPOUND": "CC(=N)S [THIOACETAMIDE]", "RESULT UNIT": "mg/dL", "Fbg": 248.6}
{"COMPOUND": "O=C(N[C@H](CO)[C@H](O)c1ccc([N+](=O)[O-])cc1)C(Cl)Cl [CHLORAMPHENICOL]", "RESULT UNIT": "mg/dL", "Fbg": 259}

For reference, reported Fbg for CC(C)C(=O)Nc1ccc([N+](=O)[O-])c(C(F)(F)F)c1 [FLUTAMIDE] stands at 229.6

For reference, reported Fbg for CCSCC[C@H](N)C(=O)O [ETHIONINE] stands at 216

---

# Species: Rattus norvegicus
# EXPERIMENT: Open TG-GATES - Regimen: Daily Repeat
# Format: toxicity, organism-based, Sprague-Dawley
# Parameters: regimen Daily Repeat, gender Male, age 6 weeks
# CONDITIONS USED: in vivo, po, 0 mg/kg, […], tissue Plasma, route gavage, dose level Control, time 14 day
Sorting guide: entries reporting DBIL beneath 0.004 mg/dL go in the yes (1) pile, the rest go in the no (0) pile.

Sample answers from the record:
{"COMPOUND": "CC(=O)Oc1cc(C(C)C)c(OCCN(C)C)cc1C [MOXISYLYTE]", "GROUP LABEL": "yes (1)"}
{"COMPOUND": "CCC(C)(C)C(=O)O[C@H]1C[C@@H](C)C=C2C=C[C@H](C)[C@H](CC[C@@H]3C[C@@H](O)CC(=O)O3)[C@H]21 [SIMVASTATIN]", "GROUP LABEL": "no (0)"}
{"COMPOUND": "CCc1oc2ccccc2c1C(=O)c1cc(I)c(O)c(I)c1 [BENZIODARONE]", "GROUP LABEL": "yes (1)"}
{"COMPOUND": "C[C@]12CCC(=O)C=C1CC[C@@H]1[C@@H]2CC[C@@]2(C)[C@H]1CC[C@]2(C)O [METHYLTESTOSTERONE]", "GROUP LABEL": "no (0)"}
{"COMPOUND": "Oc1ncnc2[nH]ncc12 [ALLOPURINOL]", "GROUP LABEL": "no (0)"}
{"COMPOUND": "CCSCC[C@H](N)C(=O)O [ETHIONINE]", "GROUP LABEL": "no (0)"}
{"COMPOUND": "CCN1CCCC1CNC(=O)c1cc(S(N)(=O)=O)ccc1OC (stereo unspecified) [SULPIRIDE]", "GROUP LABEL": "no (0)"}
{"COMPOUND": "O=C(N[C@H](CO)[C@H](O)c1ccc([N+](=O)[O-])cc1)C(Cl)Cl [CHLORAMPHENICOL]", "GROUP LABEL": "no (0)"}
{"COMPOUND": "CC(C)(S)[C@@H](N)C(=O)O [PENICILLAMINE]", "GROUP LABEL": "no (0)"}
{"COMPOUND": "C#C[C@]1(O)CC[C@H]2[C@@H]3CCc4cc(O)ccc4[C@H]3CC[C@@]21C [ETHINYL ESTRADIOL]", "GROUP LABEL": "no (0)"}

API: query returns whether the compound falls strictly under 0.004 mg/dL in DBIL. Query: `Nc1nc(N)c2nc(-c3ccccc3)c(N)nc2n1` no (0)

API: query returns whether the compound falls strictly under 0.004 mg/dL in DBIL. Query: CC(=N)S [THIOACETAMIDE] yes (1)

API: query returns whether the compound falls strictly under 0.004 mg/dL in DBIL. Query: O=C(O)c1cccnc1 [NIACIN] yes (1)

API: query returns whether the compound falls strictly under 0.004 mg/dL in DBIL. Query: C[C@](N)(Cc1ccc(O)c(O)c1)C(=O)O [METHYLDOPA] no (0)

API: query returns whether the compound falls strictly under 0.004 mg/dL in DBIL. Query: CC(C)C(=O)Nc1ccc([N+](=O)[O-])c(C(F)(F)F)c1 [FLUTAMIDE] no (0)
